# experimentalSystem: AChE from Electrophorus electricus (Electrophorus electricus, UniProt O42275)
# Sequence (O42275 24-633): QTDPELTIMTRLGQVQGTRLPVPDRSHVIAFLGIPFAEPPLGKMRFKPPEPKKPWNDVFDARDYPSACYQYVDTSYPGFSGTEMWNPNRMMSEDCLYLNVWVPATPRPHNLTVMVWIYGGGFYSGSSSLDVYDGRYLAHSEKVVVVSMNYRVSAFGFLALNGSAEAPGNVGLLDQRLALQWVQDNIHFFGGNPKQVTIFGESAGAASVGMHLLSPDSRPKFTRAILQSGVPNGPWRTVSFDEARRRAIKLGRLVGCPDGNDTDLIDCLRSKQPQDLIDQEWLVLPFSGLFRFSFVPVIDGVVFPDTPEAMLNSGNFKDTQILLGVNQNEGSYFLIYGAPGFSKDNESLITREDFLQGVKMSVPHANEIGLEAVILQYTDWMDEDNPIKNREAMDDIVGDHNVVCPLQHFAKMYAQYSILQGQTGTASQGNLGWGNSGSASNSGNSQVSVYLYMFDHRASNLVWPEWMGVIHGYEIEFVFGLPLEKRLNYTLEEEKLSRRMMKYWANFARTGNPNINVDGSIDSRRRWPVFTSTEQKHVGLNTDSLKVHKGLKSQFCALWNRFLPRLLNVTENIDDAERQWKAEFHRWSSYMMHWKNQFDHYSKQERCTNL
# test: AChE activity/kinetic assay
# Format: biochemical
# conditionParameters: Lineweaver-Burk
reportedProperty: AChE Inhibition type

>>> result("CCCCCC(=O)NS(=O)(=O)c1ccc(-c2nnc(SCC)o2)cc1")
"Competitive"
>>> result("CCCCCCCCCCCC(=O)NS(=O)(=O)c1ccc(-c2nnc(SCC)o2)cc1")
"Competitive"
>>> result("CCCCCCCCC(=O)NS(=O)(=O)c1ccc(-c2nnc(SCC)o2)cc1")
"Competitive"
